Test system: Fibroblast
method.description: Multiplex assay against human fibroblast
Format: toxicity, cell-based
details: 24 h, 1 µM, compound concentration 1 uM, replicate 2
# key: entry, value: Population Membrane Permeable-Phenotype (%)
Return type: number; implicit unit %.

>>> print(df.to_string())
                                   compound  recorded_value
0  CN1CCN2c3ccccc3Cc3ccccc3C2C1.Cl (stereo not drawn) [MIANSERIN HYDROCHLORIDE]               6
1   OCCCNc1cc(-c2ccnc(Nc3cccc(Cl)c3)n2)ccn1               6

Moving on to another compound below.
Sure, the documented Population Membrane Permeable-Phenotype (%) for CCc1nn2c(C)cc(C)nc2c1Cc1ccc(-c2nnc(C3CCNCC3)o2)cc1 is 6
